Tested on: carrageenan paw edema
Assay: rat carrageenan edema test (hind paw)
Type: in vivo, male Sprague-Dawley rats
Details: paw edema 3 hours after carrageenan; oral dose 200 mg/kg

smiles-input | % Change From Control (%)
O=C(O)C(Cl)=C1c2ccccc2C=Cc2ccccc21 | -31
O=C(O)C=C1c2ccccc2C=C(Br)c2ccccc21 | -34
O=C(O)C=C1c2ccccc2C=Cc2ccc(F)cc21 | -58
O=C(O)/C=C1\c2ccccc2C=Cc2cc(Cl)ccc21 | -49
